Data provenance: ChEMBL document CHEMBL5316283

Organism: Homo sapiens
testSummary: Selectivity ratio of Ki for human recombinant YEATS1 to Ki for human recombinant YEATS4
quantityMeasured: Ratio Ki
Lab note: jot the number down without any unit.

State the recorded Ratio Ki for this entry: CCNC(=O)c1ccc2c(c1)[nH]c(=O)n2C1CCN(CC2(O)CCCCC2)CC1
8

Dear colleague, I am looking for the recorded Ratio Ki of the following compound: CCNC(=O)c1ccc2c([C@H]3CCN(CC4(O)CCOCC4)C[C@@H]3C)c(C)nn2c1
35

Returns the measured Ratio Ki for the input compound. Input: CCNC(=O)c1ccc2c(c1)nc(C)n2[C@H]1CCN(CC2(O)CCCCC2)C[C@@H]1C
16

----------
testedOn: YEATS domain-containing protein 4 (Homo sapiens)
testSummary: Binding affinity to YEATS4 (unknown origin) assessed as dissociation constant by isothermal calorimetric analysis
Consider the following compounds; for each one, report its pKd.
Formally, pKd is defined as -log10 of the concentration c, with c in mol/L.

So what does the record say about pKd for CCNC(=O)c1ccc2c(c1)nc(C)n2[C@H]1CCN(CC2(O)CCCCC2)C[C@@H]1C ?
7.10

Record request: pKd value, item CCNC(=O)c1ccc2c(c1)nc(C(F)F)n2[C@H]1CCN(CC2(O)CCCCC2)C[C@@H]1C
7.35

For CCNC(=O)c1ccc2c(C3CCN(CC4(O)C5CC6CC(C5)CC4C6)CC3)c(C)nn2c1 (stereo not given) , what is its reported pKd?
7.28

Quick check: pKd of CCNC(=O)c1ccc2c([C@H]3CCN(CC4(O)CCOCC4)C[C@@H]3C)c(C)nn2c1 ?
7.52

What does the data say about its pKd? Entry: CCNC(=O)c1ccc2c([C@H]3CCN(CC4(O)CCCCC4)C[C@@H]3C)c(C)nn2c1
7.28

----------
Give pKi for every item shown.
testedOn: UniProt:Q12809
Sequence (Q12809 whole entry): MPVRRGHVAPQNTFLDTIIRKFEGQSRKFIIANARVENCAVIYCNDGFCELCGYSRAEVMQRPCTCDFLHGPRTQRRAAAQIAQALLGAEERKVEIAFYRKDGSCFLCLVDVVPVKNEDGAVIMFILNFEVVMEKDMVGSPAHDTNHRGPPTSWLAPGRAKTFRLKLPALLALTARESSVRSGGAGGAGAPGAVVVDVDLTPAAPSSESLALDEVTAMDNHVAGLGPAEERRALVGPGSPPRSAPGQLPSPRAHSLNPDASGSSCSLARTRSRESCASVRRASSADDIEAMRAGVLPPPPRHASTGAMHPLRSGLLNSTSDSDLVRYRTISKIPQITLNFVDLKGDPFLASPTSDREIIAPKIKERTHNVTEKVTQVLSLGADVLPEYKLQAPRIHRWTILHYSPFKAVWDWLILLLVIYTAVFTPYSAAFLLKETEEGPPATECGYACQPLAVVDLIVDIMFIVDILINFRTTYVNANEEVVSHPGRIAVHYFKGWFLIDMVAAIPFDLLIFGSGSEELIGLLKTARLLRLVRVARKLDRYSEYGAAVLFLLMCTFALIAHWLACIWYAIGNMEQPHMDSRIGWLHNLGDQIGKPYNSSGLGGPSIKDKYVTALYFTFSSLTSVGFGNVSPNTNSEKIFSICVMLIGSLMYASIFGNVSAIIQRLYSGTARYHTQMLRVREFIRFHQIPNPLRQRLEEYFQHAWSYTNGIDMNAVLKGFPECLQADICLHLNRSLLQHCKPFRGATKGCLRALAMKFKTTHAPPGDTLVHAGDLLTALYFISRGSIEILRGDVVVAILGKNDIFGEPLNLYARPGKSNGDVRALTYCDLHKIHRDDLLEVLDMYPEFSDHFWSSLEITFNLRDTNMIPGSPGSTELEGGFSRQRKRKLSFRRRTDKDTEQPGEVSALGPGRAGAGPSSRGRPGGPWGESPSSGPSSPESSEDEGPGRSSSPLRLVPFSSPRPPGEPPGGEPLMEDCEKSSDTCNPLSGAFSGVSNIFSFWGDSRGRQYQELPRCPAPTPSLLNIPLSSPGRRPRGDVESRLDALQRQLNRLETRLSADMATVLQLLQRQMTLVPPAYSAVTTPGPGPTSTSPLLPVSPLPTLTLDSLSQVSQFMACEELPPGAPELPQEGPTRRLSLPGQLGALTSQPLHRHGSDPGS
testSummary: Inhibition of hERG assessed as inhibition constant by patch-clamp assay
Bear in mind: pKi is minus log10 of a mol/L concentration; give just that figure.

So what does the record say about pKi for CCNC(=O)c1ccc2c(c1)nc(C(F)F)n2[C@H]1CCN(CC2(O)CCCCC2)C[C@@H]1C ?
4.45

Need pKi of COC1(CN2CC[C@H](c3c(C)nn4cc(C(=O)NCC5CC5)ccc34)[C@@H](C)C2)CCOCC1 , thanks.
4.78

Could you share which pKi value was measured for CCNC(=O)c1ccc2c(c1)nc(C)n2[C@H]1CCN(CC2(O)CCCCC2)C[C@@H]1C ?
4.65

Request the reported pKi associated with Cc1nn2cc(C(=O)NCC3CC3)ccc2c1[C@H]1CCN(CC2(O)CCOCC2)C[C@@H]1C
5.13

pKi for CCNC(=O)c1ccc2c([C@H]3CCN(CC4(O)CCOCC4)C[C@@H]3C)c(C)nn2c1 ?
4.18

Need pKi of CCNC(=O)c1ccc2c(C3CCN(CC4(O)CCCCC4)CC3)c(-c3cccn(C)c3=O)nn2c1 , thanks.
4.44

----------
Hi there, I'd appreciate the recorded Ratio Ki for every entry that follows.
Organism: Homo sapiens
testSummary: Selectivity ratio of Ki for human recombinant YEATS2 to Ki for human recombinant YEATS4
No unit in the answer, only the number.

Using the record for CCNC(=O)c1ccc2c(c1)nc(C)n2C1CCN(CC2(O)CCCCC2)CC1 , report its Ratio Ki.
11

May I ask what Ratio Ki has been recorded for CCNC(=O)c1ccc2c(c1)nc(C)n2[C@H]1CCN(CC2(O)CCCCC2)C[C@@H]1C ?
17

Data request, read-out Ratio Ki, for CCNC(=O)c1ccc2c([C@H]3CCN(CC4(O)CCOCC4)C[C@@H]3C)c(C)nn2c1
15

----------
Species on record: Homo sapiens
testSummary: Selectivity ratio of Ki for human recombinant YEATS1 to Ki for human recombinant YEATS4
quantityMeasured: Ratio Ki
API doc: respond with a numeric literal and nothing else, no unit.

Requested field: Ratio Ki. Item: COC1(CN2CC[C@H](c3c(C)nn4cc(C(=O)NCC5CC5)ccc34)[C@@H](C)C2)CCOCC1
213

Look at this compound and give its reported Ratio Ki. CCNC(=O)c1ccc2c(c1)nc(C(F)F)n2[C@H]1CCN(CC2(O)CCCCC2)C[C@@H]1C
19

# get_value(readout='Ratio Ki', item= CCNC(=O)c1ccc2c(c1)nc(C)n2C1CCN(CC2(O)CCCCC2)CC1 )
19

Need Ratio Ki of CCNC(=O)c1ccc2c(C3CCN(CC4(O)C5CC6CC(C5)CC4C6)CC3)c(C)nn2c1 (centres undefined) , thanks.
19

Any idea what Ratio Ki was measured for Cc1nn2cc(C(=O)NCC3CC3)ccc2c1[C@H]1CCN(CC2(O)CCOCC2)C[C@@H]1C ?
133

Any idea what its Ratio Ki is? The compound is CCNC(=O)c1ccc2c(C3CCN(CC4(O)CCCCC4)CC3)c(C)nn2c1
20

Ratio Ki lookup needed for CCNC(=O)c1ccc2c([C@H]3CCN(CC4(O)CCCCC4)C[C@@H]3C)c(C)nn2c1 , thanks.
15

// lookup Ratio Ki for CCNC(=O)c1ccc2c(C3CCN(CC4(O)CCCCC4)CC3)c(-c3cccn(C)c3=O)nn2c1
19

Consider the compound CCNC(=O)c1ccc2c(c1)nc(-c1cccn(C)c1=O)n2[C@H]1CCN(CC2(O)CCCCC2)C[C@@H]1C and give its measured Ratio Ki.
5

----------
testSummary: Tmax in mouse at 3 mg/kg, po
Format: ADME, organism-based
testContext: in vivo
quantityMeasured: Tmax (min)
Respond numerically; units are min and should not be typed.

# lookup: Tmax of CCNC(=O)c1ccc2c(c1)nc(C(F)F)n2[C@H]1CCN(CC2(O)CCCCC2)C[C@@H]1C
18

----------
testedOn: YEATS domain-containing protein 4 (Homo sapiens, UniProt O95619)
Sequence (O95619 whole entry, the tested form may be a part): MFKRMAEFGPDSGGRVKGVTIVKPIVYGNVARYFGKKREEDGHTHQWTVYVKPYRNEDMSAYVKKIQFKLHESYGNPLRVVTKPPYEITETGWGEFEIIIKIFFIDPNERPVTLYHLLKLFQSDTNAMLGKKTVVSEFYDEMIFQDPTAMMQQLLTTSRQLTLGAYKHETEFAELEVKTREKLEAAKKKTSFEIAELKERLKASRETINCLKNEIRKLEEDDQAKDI
testSummary: Binding affinity to human his-tagged recombinant YEATS4 expressed in Escherichia coli assessed as inhibition constant using biotin tagged lysine 27-crotonylated histone H3 peptide as substrate preincubated for 20 mins followed by substrate addition measured after 30 mins by FRET analysis
quantityMeasured: pKi
On this scale, pKi is minus log10 of a concentration expressed in M (mol/L).

Form field: reported pKi of CCNC(=O)c1ccc2c(c1)[nH]c(=O)n2C1CCN(CC2(O)CCCCC2)CC1
6.55

Which measured pKi value corresponds to CCNC(=O)c1ccc2c(c1)nc(C(F)F)n2[C@H]1CCN(CC2(O)CCCCC2)C[C@@H]1C ?
7.23

For CCNC(=O)c1ccc2c(C3CCN(CC4(O)C5CC6CC(C5)CC4C6)CC3)c(C)nn2c1 (configuration not stated) , what is its reported pKi?
7.68

Quick check: pKi of Cc1nn2cc(C(=O)NCC3CC3)ccc2c1[C@H]1CCN(CC2(O)CCOCC2)C[C@@H]1C ?
7.37

Would you mind telling me what pKi value was observed for CCNC(=O)c1ccc2c([C@H]3CCN(CC4(O)CCCCC4)C[C@@H]3C)c(C)nn2c1 ?
7.48

Entry CCNC(=O)c1ccc2c(C3CCN(CC4(O)CCCCC4)CC3)c(C)nn2c1 : reported pKi = ?
7.25

Fill blank: measured pKi of the compound CCNC(=O)c1ccc2c(C3CCN(CC4(O)CCCCC4)CC3)c(-c3cccn(C)c3=O)nn2c1 is ____.
7.16

Can you look up the measured pKi of COC1(CN2CC[C@H](c3c(C)nn4cc(C(=O)NCC5CC5)ccc34)[C@@H](C)C2)CCOCC1 for me?
7.24

Entry under review: CCNC(=O)c1ccc2c(c1)nc(C)n2C1CCN(CC2(O)CCCCC2)CC1 . Reported pKi?
6.85

For CCNC(=O)c1ccc2c([C@H]3CCN(CC4(O)CCOCC4)C[C@@H]3C)c(C)nn2c1 , what is its reported pKi?
7.43

Any idea what its pKi is? The compound is CCNC(=O)c1ccc2c(c1)nc(-c1cccn(C)c1=O)n2[C@H]1CCN(CC2(O)CCCCC2)C[C@@H]1C
7.48

Fill blank: measured pKi of the compound CCNC(=O)c1ccc2c(c1)nc(C)n2[C@H]1CCN(CC2(O)CCCCC2)C[C@@H]1C is ____.
7.20

----------
Organism: Homo sapiens
testSummary: Selectivity ratio of Ki for human recombinant YEATS3 to Ki for human recombinant YEATS4
quantityMeasured: Ratio Ki
Please respond with just the number, no unit label.

Ratio Ki for COC1(CN2CC[C@H](c3c(C)nn4cc(C(=O)NCC5CC5)ccc34)[C@@H](C)C2)CCOCC1 ?
160

Recorded Ratio Ki of CCNC(=O)c1ccc2c(c1)[nH]c(=O)n2C1CCN(CC2(O)CCCCC2)CC1 , please.
7

Look at this compound and give its reported Ratio Ki. CCNC(=O)c1ccc2c(c1)nc(C(F)F)n2[C@H]1CCN(CC2(O)CCCCC2)C[C@@H]1C
14

----------
testSummary: Half life in mouse at 100 mg/kg, po
Format: ADME, organism-based
testContext: in vivo
quantityMeasured: half-life (h)
Give a bare numeral; the unit h is implied.

Give the measured half-life of CCNC(=O)c1ccc2c(c1)nc(C(F)F)n2[C@H]1CCN(CC2(O)CCCCC2)C[C@@H]1C .
1.2

Param item = CCNC(=O)c1ccc2c([C@H]3CCN(CC4(O)CCCCC4)C[C@@H]3C)c(C)nn2c1 ; retrieve measured half-life.
1.2
